B1: TPR t1 (parent)
chain: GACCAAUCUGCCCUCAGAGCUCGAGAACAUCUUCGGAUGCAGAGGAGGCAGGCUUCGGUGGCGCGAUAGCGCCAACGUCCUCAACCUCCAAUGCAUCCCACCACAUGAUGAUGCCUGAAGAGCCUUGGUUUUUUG

variants of: B1; assay: polymerase ribozyme fitness, log enrichment relative to wild type (log ratio); higher = more active; in vitro selection for triplet polymerase activity
Endpoint: polymerase ribozyme fitness (log ratio)

State, in one line, measured polymerase ribozyme fitness (log ratio) of A24G A29U G44U C80A -6.46

Retrieve polymerase ribozyme fitness (log ratio) measured for G113C G127C and print it. -3.73

Return value of polymerase ribozyme fitness (log ratio) for input C64U A103G , no commentary. -4.77

Please look at this variant and report its polymerase ribozyme fitness (log ratio): C73A G128U -2.16

Provide only the value of recorded polymerase ribozyme fitness (log ratio) for G52U U81A -2.79

Name the recorded polymerase ribozyme fitness (log ratio) of the item U14A U106A in your answer. -1.9

Note down polymerase ribozyme fitness (log ratio) recorded for C11G U109G -4.69

Determine from records and report polymerase ribozyme fitness (log ratio) for G17C C72U U78G U116A A119C G120A -5.61

Tell me polymerase ribozyme fitness (log ratio) reported for A75G C94G -1.19

Read off the recorded polymerase ribozyme fitness (log ratio) for U78G C114G U129A -4.16

Please report the measured polymerase ribozyme fitness (log ratio) for A18C C72U G113C -3.97

Provide one value: measured polymerase ribozyme fitness (log ratio) of C40G A91C C98U -5.6

Report polymerase ribozyme fitness (log ratio), nothing else, for this variant: G44U G93U G117A -3.24

Determine from records and report polymerase ribozyme fitness (log ratio) for A18C G69U -0.162

Quote polymerase ribozyme fitness (log ratio) reported for C11U G39C please. -1.05

Given G47C C49A G63U U78C C123G C124U , respond with its polymerase ribozyme fitness (log ratio). -4.24

Indicate the recorded polymerase ribozyme fitness (log ratio) value for this variant: C3U C56G C73U -1.31

Annotate the variant U106G G110C U112C with its measured polymerase ribozyme fitness (log ratio). -5.6

Provide only the value of recorded polymerase ribozyme fitness (log ratio) for C97A U112C -2.11

Give the reported value of polymerase ribozyme fitness (log ratio) for this record: G10A U59C A66C A68G U106G A121U -4.4

Quick one: give measured polymerase ribozyme fitness (log ratio) for A43G C56U C79G A111G -5.35

Query polymerase ribozyme fitness (log ratio) for C11A G45A G60A G113C -4.47

Supply measured polymerase ribozyme fitness (log ratio) of C12U U112G in your reply. 0.735

Please report polymerase ribozyme fitness (log ratio) for the following variant: G48A C53U C80U C124U 0.0289

Specify reported polymerase ribozyme fitness (log ratio) for the variant shown: U38G G52A C62U C114A -3.2

Give the measured polymerase ribozyme fitness (log ratio) for C40A G48C A121C U129G -0.25

Entry G47U A68G C104U needs its polymerase ribozyme fitness (log ratio) filled in; supply it. -4.55

Please list polymerase ribozyme fitness (log ratio) recorded for the variant C20U G69C C94U -2.8

Give the reported value of polymerase ribozyme fitness (log ratio) for this record: C4G A5U U55C G113A -4.56

Read the entry C15U C49A C72A U129C U134A G135C and write its reported polymerase ribozyme fitness (log ratio). -1.14

Let me know recorded polymerase ribozyme fitness (log ratio) for G52U G69U G71C , thanks. -1.06

Output polymerase ribozyme fitness (log ratio) of U33G C34G C72G G110A -6.68

Complete the entry with polymerase ribozyme fitness (log ratio) for A41G G61A -0.141

Return polymerase ribozyme fitness (log ratio) (reported value) for this variant: C73U G122A -0.427

Read the entry U9A C97G A105G C115U G117A and write its reported polymerase ribozyme fitness (log ratio). -7.76

Give a short answer stating reported polymerase ribozyme fitness (log ratio) for C56U G61A U112G A121U . -6.37

Supply recorded polymerase ribozyme fitness (log ratio) for G45A C101A here. -1.74

Give polymerase ribozyme fitness (log ratio) for A24U C94U A103U G110C G120C U131A -5.54

Please indicate polymerase ribozyme fitness (log ratio) recorded for C34A C73G G120A C124G U133A -1.12

Kindly indicate its recorded polymerase ribozyme fitness (log ratio). Item: C3U A6U C20G A37U C72U C82U G113A A119C U129C U133A -5.44

Please look at this variant and report its polymerase ribozyme fitness (log ratio): C85U A100U -1.79

Name the recorded polymerase ribozyme fitness (log ratio) of the item G19C A84G in your answer. -3.14

Specify polymerase ribozyme fitness (log ratio) for G42C C62G and stop. -4.74

Indicate its recorded polymerase ribozyme fitness (log ratio); the variant in question is G61A U130C 0.204

Report polymerase ribozyme fitness (log ratio), nothing else, for this variant: U7G G63C -0.0723

Provide one value: measured polymerase ribozyme fitness (log ratio) of U7A U78C G93U G113C -3.01

Item G51A C89U U130A : provide polymerase ribozyme fitness (log ratio) -3.01

Write down polymerase ribozyme fitness (log ratio) measured for item C13A C72G C82A C94U G110A -3.05

Hello, please tell me recorded polymerase ribozyme fitness (log ratio) for this one: C53U U112A 0.78

Tell me measured polymerase ribozyme fitness (log ratio) for C11G G52U A118G C124G please. 0.453

Note polymerase ribozyme fitness (log ratio) for the variant shown: G63A C70G C73A -5.82

Return reported polymerase ribozyme fitness (log ratio). Input variant: C4A U21G G44U G63U C82A C124G -4.8

Determine from records and report polymerase ribozyme fitness (log ratio) for U9A A16U G63A U129C -1.11

Answer with the recorded polymerase ribozyme fitness (log ratio) for the variant listed here: C20U G69U -0.346

Assign polymerase ribozyme fitness (log ratio) to the following record: G23U A26G A37U G69U -5.18

Give me measured polymerase ribozyme fitness (log ratio), please, for this variant: A5C G35A A41U U112A -5.8

Tell me its polymerase ribozyme fitness (log ratio) given G39C G48U G57C as the entry. -1.92

Provide one value: measured polymerase ribozyme fitness (log ratio) of C80G A105C U116A C123G -7.31

Provide one value: measured polymerase ribozyme fitness (log ratio) of C8A U30A A46C U109G A119U -6.8

Give me measured polymerase ribozyme fitness (log ratio), please, for this variant: A2G A27U C79G C104U -4.76

For the variant G47A G113C , give its reported polymerase ribozyme fitness (log ratio). -3.08

Indicate its recorded polymerase ribozyme fitness (log ratio); the variant in question is C22A G71U -5.61

Output polymerase ribozyme fitness (log ratio) of C56U U116A -2.51

Give polymerase ribozyme fitness (log ratio) for the following variant: C4U G48U G93A -2.39

Give reported polymerase ribozyme fitness (log ratio) value for U32C A41U G45C C115G -5.44

Return polymerase ribozyme fitness (log ratio) for the following variant: G63C U92A U132A -3.33

Could you please provide reported polymerase ribozyme fitness (log ratio) for A46U A121C ? Thanks! 1.4

For the variant C20U C49U C56G U78G U81A C86U U133G , give its measured polymerase ribozyme fitness (log ratio) value. -3.51

Given C15A U54G A90U , respond with its polymerase ribozyme fitness (log ratio). -3.13
